- Experimental System: RSV F protein on respiratory syncytial virus (RSV-Long strain) (respiratory syncytial virus (Long strain)) (UniProt P12568)
- Sequence (P12568 26-574): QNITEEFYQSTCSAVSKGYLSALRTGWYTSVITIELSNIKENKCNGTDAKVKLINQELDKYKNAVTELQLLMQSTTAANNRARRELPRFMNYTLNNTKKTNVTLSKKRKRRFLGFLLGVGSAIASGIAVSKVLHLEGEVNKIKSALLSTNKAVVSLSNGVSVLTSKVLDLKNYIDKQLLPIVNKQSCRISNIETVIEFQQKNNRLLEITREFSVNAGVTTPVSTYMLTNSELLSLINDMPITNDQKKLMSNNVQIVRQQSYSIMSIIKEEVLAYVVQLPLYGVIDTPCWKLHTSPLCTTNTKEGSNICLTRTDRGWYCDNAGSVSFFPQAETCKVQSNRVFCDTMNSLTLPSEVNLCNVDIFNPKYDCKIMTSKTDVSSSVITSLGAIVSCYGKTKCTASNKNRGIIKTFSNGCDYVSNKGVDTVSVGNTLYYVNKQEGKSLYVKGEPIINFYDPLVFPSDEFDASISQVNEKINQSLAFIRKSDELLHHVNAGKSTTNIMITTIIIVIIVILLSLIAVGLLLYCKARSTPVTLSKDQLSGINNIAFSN
- Method Summary: cell-based or functional assay
Values of Fold Difference (Curve IC50) greater than or equal to 10 fold map to 1; values below map to -1.

INSERT INTO measurements (binder, assigned_class) VALUES
  ('A1h5 Fab fragment (Fab, V domains shown) VH: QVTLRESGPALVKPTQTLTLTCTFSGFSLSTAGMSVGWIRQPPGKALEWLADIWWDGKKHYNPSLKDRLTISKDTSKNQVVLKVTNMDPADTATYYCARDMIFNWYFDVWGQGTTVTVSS VL: DIQMTQSPSTLSASVGDRVTITCSLSSSVGYMHWYQQKPGKAPKLLIYDTFFHRSGVPSRFSGSGSGTEFTLTISSLQPDDFATYYCFQGSGYPFTFGGGTKVEIK', -1),
  ('P11d4 monoclonal antibody (antibody, V domains shown) VH: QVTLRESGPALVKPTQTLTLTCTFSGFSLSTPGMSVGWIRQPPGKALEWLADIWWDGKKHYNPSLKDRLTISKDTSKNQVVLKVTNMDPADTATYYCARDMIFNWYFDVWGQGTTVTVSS VL: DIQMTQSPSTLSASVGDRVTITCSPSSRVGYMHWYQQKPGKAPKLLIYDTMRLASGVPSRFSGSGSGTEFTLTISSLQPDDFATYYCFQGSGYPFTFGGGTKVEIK', 1),
  ('A12a6 Fab fragment (Fab, V domains shown) VH: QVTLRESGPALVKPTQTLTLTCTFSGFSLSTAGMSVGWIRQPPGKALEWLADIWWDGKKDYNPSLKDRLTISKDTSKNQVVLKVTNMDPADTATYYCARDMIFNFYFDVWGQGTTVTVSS VL: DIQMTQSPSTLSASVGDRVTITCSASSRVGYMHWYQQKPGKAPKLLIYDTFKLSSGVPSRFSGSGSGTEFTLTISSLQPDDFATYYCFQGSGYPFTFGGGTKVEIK', 1),
  ('A13c4 monoclonal antibody (antibody, V domains shown) VH: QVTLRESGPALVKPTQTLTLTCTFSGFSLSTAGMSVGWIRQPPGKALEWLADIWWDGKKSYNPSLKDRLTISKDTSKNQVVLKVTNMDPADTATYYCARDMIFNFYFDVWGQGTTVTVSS VL: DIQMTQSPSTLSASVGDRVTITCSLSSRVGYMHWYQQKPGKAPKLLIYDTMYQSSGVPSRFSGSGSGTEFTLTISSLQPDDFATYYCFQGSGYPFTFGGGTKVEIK', 1);
